# Test system: MS2 coat protein
# Protocol summary: apparent KD of MS2 coat protein; designed switch direction (-1 OFF switch, 1 ON switch): -1; higher = weaker reporter binding
# Reported conditions: input ligand: FMN 200 uM
Attribute: apparent KD of MS2 coat protein
Measured parameter: apparent KD of MS2 coat protein (nM)

residue_sequence="GAUGGCUUAGGAUAUACAUAGAAGAAUUGAACUUGGAUUAUACAUGAGGAUCACCCAUGUAGAAGGAGGUCAUC [ExGluten 4 - Jieux - Exclusion 2] (Eterna round: R97, puzzle: Exclusion 2)" assay_target="MS2 coat protein" value_reported=53
residue_sequence="UUUAACAGAGGAUAUGCGAAUAAAUAAAACUUUUUUUUUUAACAUGAGGAUCACCCAUGUAGAAGGCUGAUAUU [Ex2 #23] (Eterna round: R97, puzzle: Exclusion 2)" assay_target="MS2 coat protein" value_reported=34.9
residue_sequence="AGUUGGCGAGGAUAUACAUGAGGAUCACCCAUGUGAGAGAUAGUAGUGAGGUCGAUUAGUAGAAGGCGCUGACA [Mat X3R4 m13] (Eterna round: R97, puzzle: Exclusion 3)" assay_target="MS2 coat protein" value_reported=278
residue_sequence="AAAUAAAGGUAGGAUAUCGAUUUUAAUUAAUAUCGAGAAGGGUCAACAUGAGGAUCACCCAUGUCAGCAUGUAA [LRO-Excl6-01-Rocketman] (Eterna round: R97, puzzle: Exclusion 6)" assay_target="MS2 coat protein" value_reported=59.9
residue_sequence="GUCAGCUCGUGAGGAUAUAUAUACAUGAGGAUCACCCAUGUAAGAUCAGGCUUCGGCCAAUGUAUAUAGAAGGCACGAGCUGAC [ENG2/11-A1] (Eterna round: R96, puzzle: Exclusion NG 2)" assay_target="MS2 coat protein" value_reported=1350
residue_sequence="ACAUGAGGAUCACCCAUGUCCGGCUGGUCUGUUCCGGCUGUCGAGGAUAUAGUCCGGUGUUCGCGCUAGAAGGUGAGGGCUGGA [Aenatbe mod 45] (Eterna round: R96, puzzle: Exclusion NG 3)" assay_target="MS2 coat protein" value_reported=78.9
residue_sequence="UUUGGUGUAGGAUAUACAUGAGGAUCACCCAUGUGCUCCUGCGAGUUCGAAUCCAAAGGUAGAAGGGCGCUAAU [Eternabot (L2) Solution 83] (Eterna round: R97, puzzle: Exclusion 3)" assay_target="MS2 coat protein" value_reported=23.3
residue_sequence="AGAGCACAUGAGGAUCACCCAUGUCAGGAUAUCGACUGAACAGCUUCGGCUGUUCAGUCGAGAAGGGACAAUUA [Brourdxlusion 7 - Jieux - Exclusion 1] (Eterna round: R97, puzzle: Exclusion 1)" assay_target="MS2 coat protein" value_reported=19.4
residue_sequence="GUGGGUUACAUGAGGAUCACCCAUGUAUAGUGGGAAGAGAUAUAGGAUAUAAUAUAAAAAUUAUAUUAGAAGGAUAGAGACUAG [AK ExNG3-1.2] (Eterna round: R96, puzzle: Exclusion NG 3)" assay_target="MS2 coat protein" value_reported=491
residue_sequence="CACACCUCCGUCAGGAUAUUAAGGCACCGCCGCCAUGAGAAGGGACAUGAGGAUCACCCAUGUUAAUCGUGGAA [Betibier] (Eterna round: R97, puzzle: Brourd's mod of Exclusion 4)" assay_target="MS2 coat protein" value_reported=226

---

# System: MS2 coat protein
# Protocol summary: apparent KD of MS2 coat protein; designed switch direction (-1 OFF switch, 1 ON switch): -1; higher = weaker reporter binding
# Reported conditions: Eterna round: R95; input ligand: FMN 200 uM
Attribute: apparent KD of MS2 coat protein
Measured parameter: apparent KD of MS2 coat protein (µM)

residue_sequence="UUAACGUGGGCGUCCCACAGCAAGCUUUUUGCUCGUUUAACAUGAGGAUCACCCAUGUCGCUGCGGGAUCCCUAUGA [Abeisat] (puzzle: Sensor v3, turn-off variant 2)" readout_unit=µM value_reported=0.0135
residue_sequence="AGUAACCGUCACGAAAGUGAUGGUUACACAAGAAAUGAAACAUGAGGAUCACCCAUGUCCUCAUUUGCUCGUCUUAU [Sensor 3 - 38] (puzzle: Sensor v3, turn-off variant 2)" readout_unit=µM value_reported=0.176
residue_sequence="CUAGUCCGAGGAUAUAUAUUGUGAAACAUGAGGAUCACCCAUGUUAUAAUAUGGAAAUAAAUAGAAGGCGGACUAG [Mat - Exclusion 5 - JL mod - D57] (puzzle: Exclusion 5)" readout_unit=µM value_reported=0.0233

---

# System: MS2 coat protein
# Protocol summary: apparent KD of MS2 coat protein, switch OFF state (with FMN for OFF switches, without FMN for ON switches); designed switch direction (-1 OFF switch, 1 ON switch): -1; higher = weaker reporter binding
# Reported conditions: FMN input: 0 or 200 uM; Eterna round: R93 (includes R88 designs)
Measured parameter: apparent KD of MS2 coat protein (nM)

residue_sequence="AGGAAACAUGAGGAUCACCCAUGUCAGGAUAUUUGAAAGAAAAGAAAAGAAAGAAGAAGAAGAAGGGACAAGAA [Narmer]" measured_parameter="apparent KD of MS2 coat protein" readout_unit=nM value_reported=31.1
residue_sequence="AGCAAGAGAGGAUAUACAUAAAAAAAAAAAGUCUGAUCCCUACAUGAGGAUCACCCAUGUAGAAGGCUCUGGCA [Ex2 Design 156: Sub-opt 20]" measured_parameter="apparent KD of MS2 coat protein" readout_unit=nM value_reported=26.2
residue_sequence="AACAAACAUGAGGAUCACCCAUGUCAGGAUAUGCAUAAAUAAAUAAAUAAAUAAAUAAGCAGAAGGGACACAAC [Amethyst 90]" measured_parameter="apparent KD of MS2 coat protein" readout_unit=nM value_reported=53.3
residue_sequence="AAAAAGUCAGGAUAUGCAGACAAAGCAAAAAAGCAAUGUCUGCAGAAGGGACAUGAGGAUCACCCAUGUAAAAA [Ex 4 May 9]" measured_parameter="apparent KD of MS2 coat protein" readout_unit=nM value_reported=44.6
residue_sequence="GAGAGCCGAGGAUAUACAUGAGGAUCACCCAUGUAAAAAAAAAAAAAAAAAAAAUCAUGUAGAAGGCGGCUUUC [hsl_exclusion3]" measured_parameter="apparent KD of MS2 coat protein" readout_unit=nM value_reported=28.9
residue_sequence="AAGAACAGAGGAUAUACAAAAUAAAAGAAAAGAAAGAAAGAACAUGAGGAUCACCCAUGUAGAAGGCUGAAGAA [Sonbef]" measured_parameter="apparent KD of MS2 coat protein" readout_unit=nM value_reported=24.1
residue_sequence="AAAAAGUGAGGAUAUGGAAAAAAAAAAAAAAAAAAAAAAAACCAGAAGGCACAUGAGGAUCACCCAUGUAAAAA [exclusive 2]" measured_parameter="apparent KD of MS2 coat protein" readout_unit=nM value_reported=30.9

---

Attribute: apparent KD of MS2 coat protein
# Tested on: MS2 coat protein
# Protocol summary: apparent KD of MS2 coat protein; designed switch direction (-1 OFF switch, 1 ON switch): -1; higher = weaker reporter binding
# Reported conditions: input ligand: FMN 200 uM
Measured parameter: apparent KD of MS2 coat protein (nM)

residue_sequence="ACAUGAGGAUCACCCAUGUCCGUCUGAUCUGUCUCGGCUGUCGAGGAUAUAGCCCGGUAUCCGCGCUAGAAGGUGGGAGUCGGC [Aenatbe mod 99] (Eterna round: R96, puzzle: Exclusion NG 3)" readout_unit=nM value_reported=29.8
residue_sequence="CUAGCGAAUGUAGGAUAUCGGACUGUUUCAGUCUGAGAAGGACAUGAGGAUCACCCAUGUAUAGCUACGUGAGUAGCUCGCUAG [JL ENG1 3.91] (Eterna round: R96, puzzle: Exclusion NG 1)" readout_unit=nM value_reported=43.6
residue_sequence="AGCUGUGGCCGAGGAUAUCUGUUCCAAAUAACCGACGUAUAGUCGGACAUGAGGAUCACCCAUGUAGAGAAGGCGGUCUCAGCA [Eli eng2 - 101] (Eterna round: R96, puzzle: Exclusion NG 2)" readout_unit=nM value_reported=136
residue_sequence="GUUGUUCGGUAGGAUAUGAAACAGCAGAGAUUGUCAGAAGGGCCGACAUGAGGAUCACCCAUGUGUGCGAAAGC [Eternabot (L1) Solution 26] (Eterna round: R97, puzzle: Exclusion 6)" readout_unit=nM value_reported=35.1
residue_sequence="GAGCUGUGAGGAUAUACAUGAGGAUCACCCAUGUAAUGGUAGUCGGGAUUAAUUUGGUGUAGAAGGCGCUUAUU [JR_Ex3_Sub020] (Eterna round: R97, puzzle: Exclusion 3)" readout_unit=nM value_reported=41

---

Attribute: apparent KD of MS2 coat protein
# Test system: MS2 coat protein
# Protocol summary: apparent KD of MS2 coat protein; designed switch direction (-1 OFF switch, 1 ON switch): -1; higher = weaker reporter binding
# Reported conditions: input ligand: none
Measured parameter: apparent KD of MS2 coat protein

residue_sequence="CUUCGUAAUGUCAGGAUAUUUUCGAGGGCAACUCAAAAGAAGGGACAUGAGGAUCACCCAUGUGGCAACGUCAU [Eternabot (L2) Solution 83] (Eterna round: R97, puzzle: Brourd's mod of Exclusion 4)" measured_parameter="apparent KD of MS2 coat protein" value_reported="0.0519 µM"
residue_sequence="UGAGUGCUGCGAGGAUAUACAUGAGGAUCACCCAUGUUAUCGUGUGAGGCUUUGCCUCACACGAAGUAGAAGGCGCAGUACUCU [JL ENG2 1.11] (Eterna round: R96, puzzle: Exclusion NG 2)" measured_parameter="apparent KD of MS2 coat protein" value_reported="0.0142 µM"
residue_sequence="GAUCAUGCAGGAUAUACAGUUUCCAUGAAAACAUGGUCCUCACAUGAGGAUCACCCAUGUAGAAGGGCAUGAUC [Omei Ex2 A28] (Eterna round: R97, puzzle: Exclusion 2)" measured_parameter="apparent KD of MS2 coat protein" value_reported="1.49 µM"
residue_sequence="AUUAAACAUGUAGGAUAUGCAUAGCAAAGCUAUGCAGAAGGACAUGAGGAUCACCCAUGUAAAAGCGUCUGAGUACAGAUGCAA [Mat - Exclusion NG 1 - Mod of JL - D89] (Eterna round: R96, puzzle: Exclusion NG 1)" measured_parameter="apparent KD of MS2 coat protein" value_reported="0.057 µM"
residue_sequence="AGUUGGCGAGGAUAUACAUGAGGAUCACCCAUGUGUGAGAUAUAAGUGAGGUAAAUAUGUAGAAGGCGCUGACA [JR_Ex3_Sub079] (Eterna round: R97, puzzle: Exclusion 3)" measured_parameter="apparent KD of MS2 coat protein" value_reported="0.425 µM"
residue_sequence="GGUCAUAGGUAAGGAUAUGAAGAUCUGGUGGUGACAUGAGGAUCACCCAUGUGAAAACGAUGAGAUCAGAAGGUACAAUAUGAA [AK ExNG2-4.1] (Eterna round: R96, puzzle: Exclusion NG 2)" measured_parameter="apparent KD of MS2 coat protein" value_reported="0.0864 µM"
residue_sequence="UAUAUGUCAGGAUAUUAGUAGUAAAUAAAUAAAAUUAUUACUGAGAAGGGACAUGAGGAUCACCCAUGUACCUU [Salish 062 v32] (Eterna round: R97, puzzle: Exclusion 4)" measured_parameter="apparent KD of MS2 coat protein" value_reported="0.0155 µM"
residue_sequence="CCGGAAAGGAAGGAUAUGCUAGACGAAAGUCUAGCAGAAGGUCCUACAUGAGGAUCACCCAUGUGUCCUCCCGG [Eli x6 4.08] (Eterna round: R97, puzzle: Exclusion 6)" measured_parameter="apparent KD of MS2 coat protein" value_reported="0.27 µM"
residue_sequence="CCAUAUAACUGAGGAUAUACGCACCACUAACUAGUAGAAGGCAGACAUGAGGAUCACCCAUGUGAUUUCUCAAUAUUAUACAUC [Prohibition 74 - Jieux - Exclusion NG 1] (Eterna round: R96, puzzle: Exclusion NG 1)" measured_parameter="apparent KD of MS2 coat protein" value_reported="0.775 µM"
residue_sequence="GUCUUGUCAGGAUAUCUUACAUAACCAUCGUAGUUACAAUUGGAGAAGGGACAUGAGGAUCACCCAUGUUUGCG [tap-tap-tappy32] (Eterna round: R97, puzzle: Exclusion 4)" measured_parameter="apparent KD of MS2 coat protein" value_reported="0.0266 µM"
residue_sequence="CGGCCGUUUGUAAGGAUAUAACUAGUUGCGACCAGUUAGAAGGUACAUGAGGAUCACCCAUGUCUUCCAGUGGC [Eternabot (L1) Solution 76] (Eterna round: R97, puzzle: Brourd's mod of Exclusion 4)" measured_parameter="apparent KD of MS2 coat protein" value_reported="0.0151 µM"
residue_sequence="GCUAGGAGUGUGAGGAUAUGCUGUUCCUUGGAACAGCAGAAGGCACAUGAGGAUCACCCAUGUGAAGACCUAGC [Mat - Exclusion 4 - JL Mod - D3] (Eterna round: R97, puzzle: Brourd's mod of Exclusion 4)" measured_parameter="apparent KD of MS2 coat protein" value_reported="0.0245 µM"
residue_sequence="ACAUGAGGAUCACCCAUGUAAUCAUGAUGGCUGAUGUAGAGGUAGGAUAUGUGUGGCUUUCUAUCACAGAAGGACCAAGACUGG [Deportation 38 - Jieux - Exclusion NG 3] (Eterna round: R96, puzzle: Exclusion NG 3)" measured_parameter="apparent KD of MS2 coat protein" value_reported="0.0598 µM"
residue_sequence="GCCUCACUUGAGGAUCACCCAAGUCAGGAUAUUCACUGAGCUGCAUAACAACUCGGCCGAAGAAGGGAUUCGGG [Edlacebe] (Eterna round: R97, puzzle: Exclusion 1)" measured_parameter="apparent KD of MS2 coat protein" value_reported="0.0849 µM"
residue_sequence="UAUUCUGGAGGAUAUACAUGAGGAUCACCCAUGUAAAUUGUACAGAGCGGGAGUCUAUGUAGAAGGCUAGGACA [EX3 C.2] (Eterna round: R97, puzzle: Exclusion 3)" measured_parameter="apparent KD of MS2 coat protein" value_reported="0.0191 µM"
residue_sequence="GUGCUAUAGGAAGGAUAUACUUCAUUAGACUAACAUGAGGAUCACCCAUGUAACCUUAUGUAUGUGUAGAAGGUCCAUAGCUUA (Eterna round: R96, puzzle: Exclusion NG 2)" measured_parameter="apparent KD of MS2 coat protein" value_reported="0.0201 µM"
residue_sequence="CUAUAGUAUGUAGGAUAUCGGUCAGUUUCUGAUCGAGAAGGACAUGAGGAUCACCCAUGUAAGGCUACCGGUUUCUGGUGGCCG [JL ENG1 3.54] (Eterna round: R96, puzzle: Exclusion NG 1)" measured_parameter="apparent KD of MS2 coat protein" value_reported="0.0236 µM"
residue_sequence="ACAAACAACAUAGGAUAUCUGCGGGUGUCAGUGCUCAUGGAUCUCCACAUGAGGAUCACCCAUGUAGAGAAGGAUGAACGCUUA [Retionzaan] (Eterna round: R96, puzzle: Exclusion NG 2)" measured_parameter="apparent KD of MS2 coat protein" value_reported="0.0141 µM"
